# experimentalTarget: recombinant soluble tissue factor and recombinant human factor VIIa (TF-VIIa) (Homo sapiens)
# Construct: conversion of coagulation factor VII to VIIa by factor Xa
# Sequence (P08709 213-466 limits assumed): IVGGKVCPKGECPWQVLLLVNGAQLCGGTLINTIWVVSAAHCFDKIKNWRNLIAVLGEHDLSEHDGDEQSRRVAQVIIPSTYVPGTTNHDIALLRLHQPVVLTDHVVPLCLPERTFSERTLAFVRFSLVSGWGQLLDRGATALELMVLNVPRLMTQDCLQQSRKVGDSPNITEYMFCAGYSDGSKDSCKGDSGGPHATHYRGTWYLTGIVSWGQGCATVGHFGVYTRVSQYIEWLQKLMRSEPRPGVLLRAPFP
# Sequence (P08709 61-212 limits assumed): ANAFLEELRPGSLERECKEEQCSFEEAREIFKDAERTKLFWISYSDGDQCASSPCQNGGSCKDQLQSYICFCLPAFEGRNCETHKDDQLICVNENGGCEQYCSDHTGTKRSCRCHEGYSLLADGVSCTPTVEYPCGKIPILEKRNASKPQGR
# Sequence (P13726 33-251 partner limits assumed): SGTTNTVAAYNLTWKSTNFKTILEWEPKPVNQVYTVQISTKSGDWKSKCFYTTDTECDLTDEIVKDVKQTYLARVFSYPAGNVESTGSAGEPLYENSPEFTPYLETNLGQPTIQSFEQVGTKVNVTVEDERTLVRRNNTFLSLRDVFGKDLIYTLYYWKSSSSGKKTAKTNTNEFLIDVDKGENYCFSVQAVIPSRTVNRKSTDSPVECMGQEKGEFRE
# testProtocol: TF-VIIa assay (chromogenic substrate hydrolysis)
# measurementSetup: reported only as less than or greater than 0.1 uM
observationType: IC50

compound | IC50
CC[C@@H](C)Nc1ncc(-c2cc(N)cc(C(=O)N[C@@H](C)CC)c2)n(CC(=O)NCc2ccc(C(=N)N)cc2)c1=O.O=C(O)C(F)(F)F.O=C(O)C(F)(F)F | < 100 nM
CC(C)Nc1ncc(-c2cc(N)cc(OCC(C)(C)N(C)C)c2)n(CC(=O)NCc2ccc(C(=N)N)cc2)c1=O.O=C(O)C(F)(F)F.O=C(O)C(F)(F)F | < 100 nM
CCC(CC)CS(=O)(=O)c1cc(N)cc(-c2cnc(NC(C)C)c(=O)n2CC(=O)NCc2ccc(C(=N)N)cc2)c1.O=C(O)C(F)(F)F.O=C(O)C(F)(F)F | < 100 nM
COC(=O)[C@@H](NC(=O)c1cc(N)cc(-c2cnc(NC(C)C)c(=O)n2CC(=O)NCc2ccc(C(=N)N)cc2)c1)c1ccccc1 | < 100 nM
CC(C)Nc1ccc(-c2cc(N)cc(N)c2)n(CC(=O)NCc2ccc(C(=N)N)cc2)c1=O | > 100 nM

# lookup: IC50 of CC(C)Nc1ncc(-c2cc(N)cc(C(=O)NCC(=O)O)c2)n(CC(=O)NCc2ccc(C(=N)N)cc2)c1=O > 100 nM

Likewise for COc1c(N)cc(CC(=O)O)cc1-c1cnc(NC(C)C)c(=O)n1CC(=O)NCc1ccc(C(=N)N)cc1 ? > 100 nM

Likewise for CC(C)Nc1ncc(-c2cc(N)cc(NC(=O)OC(C)(C)C)c2)n(CC(=O)NCc2ccc(C(=N)N)c(O)c2)c1=O ? > 100 nM

Likewise for CCC(CC)C(=O)Nc1cc(N)cc(-c2cnc(NC(C)C)c(=O)n2CC(=O)NCc2ccc(C(=N)N)cc2)c1.O=C(O)C(F)(F)F.O=C(O)C(F)(F)F ? < 100 nM

Likewise for CC(C)Nc1ncc(-c2cc(N)cc(N)c2)n(CC(=O)NCc2ccc(C(=N)N)c(O)c2)c1=O ? > 100 nM

Likewise for CCC(C)Oc1cc(N)cc(-c2cnc(NC(C)C)c(=O)n2CC(=O)NCc2ccc(C(=N)N)cc2)c1.O=C(O)C(F)(F)F.O=C(O)C(F)(F)F (centres unmarked) ? < 100 nM
